Taken from patent US11053248B2.

Test system: hPDE3B
assay: In vitro assay PDE3 (SPA, 3H-cAMP)
Format: biochemical, human
Set-up: unit not given here
Recorded hPDE3B Emax values for a group of molecules are listed next.
readout-type: hPDE3B Emax

1. C[C@@H]1CCN(c2cccc(C#N)n2)C[C@H]1c1cc(C(F)F)nc2ncnn12 [Compound 24] | 68
2. COc1cccc2c(N3CC[C@@H](C)[C@H](c4cc(C(F)F)nc5ncnn45)C3)nccc12.Cl [Compound 10] | 84
3. C[C@@H]1CCN(c2cc(C#N)c3cc(Cl)ccc3n2)C[C@H]1c1cc(C(F)F)nc2ncnn12 [Compound 37] | 70
4. C[C@@H]1CCN(c2nccc3cccnc23)C[C@H]1c1cc(C(F)F)nc2ncnn12 [Compound 23] | 54
5. C[C@@H]1CCN(c2nccc3ccc(Br)cc23)C[C@H]1c1cc(C(F)F)nc2ncnn12 [Compound 1] | 73
6. C[C@@H]1CCN(c2ccc(C(F)(F)F)cn2)C[C@H]1c1cc(C(F)F)nc2ncnn12 [Compound 38] | 49
7. Cc1cc([C@@H]2CN(c3nccc4ccc(Cl)cc34)CC[C@H]2C)n2ncnc2n1 [Compound 3] | 88
8. CC(C)Oc1cccnc1N1CC[C@H](C)[C@@H](c2cc(C(F)F)nc3ncnn23)C1.Cl [Compound 34] | 2
9. C[C@@H]1CCN(c2cc(C#N)ccn2)C[C@H]1c1cc(C(F)F)nc2ncnn12 [Compound 22] | 82
